Structures can show the parent of a compound that is named as a salt.
The listing below reports IC50 for compounds tested on PKC theta (Homo sapiens).
Sequence (Q04759 whole entry): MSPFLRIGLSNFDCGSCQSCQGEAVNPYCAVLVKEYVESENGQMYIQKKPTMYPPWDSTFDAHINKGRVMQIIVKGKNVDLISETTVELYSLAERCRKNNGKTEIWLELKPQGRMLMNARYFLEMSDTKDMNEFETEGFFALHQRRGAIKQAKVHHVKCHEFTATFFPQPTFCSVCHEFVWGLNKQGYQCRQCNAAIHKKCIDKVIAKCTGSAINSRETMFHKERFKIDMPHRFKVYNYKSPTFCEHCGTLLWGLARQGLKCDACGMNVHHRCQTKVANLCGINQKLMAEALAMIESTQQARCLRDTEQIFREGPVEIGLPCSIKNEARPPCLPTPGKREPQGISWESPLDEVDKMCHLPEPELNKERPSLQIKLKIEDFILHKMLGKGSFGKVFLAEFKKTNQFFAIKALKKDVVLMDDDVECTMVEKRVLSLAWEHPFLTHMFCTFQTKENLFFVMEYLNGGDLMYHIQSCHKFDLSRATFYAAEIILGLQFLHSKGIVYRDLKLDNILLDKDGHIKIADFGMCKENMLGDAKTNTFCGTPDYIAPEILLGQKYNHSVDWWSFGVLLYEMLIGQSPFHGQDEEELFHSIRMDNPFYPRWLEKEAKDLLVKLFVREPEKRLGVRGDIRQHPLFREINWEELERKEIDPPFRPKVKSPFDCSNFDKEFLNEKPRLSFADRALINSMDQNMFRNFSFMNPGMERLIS

// worked examples, IC50 included
>>> measvalue("CC(C)(C(=O)NCC(N)c1ccc(C(=O)Nc2ccncc2)cc1)c1ccc(F)cc1 (stereo not drawn)")
"< 50 nM"
>>> measvalue("NC(CNC(=O)C1(c2ccc(Cl)cc2)CC1)c1ccc(C(=O)Nc2ccnc3[nH]ccc23)cc1 (stereo not drawn)")
"< 50 nM"

Next, consider the following compound.
Please fill in: IC50 reported for NC(CNC(=O)C1(c2ccc(Cl)cc2)CC1)c1ccc(C(=O)Nc2ccncc2)cc1 (stereo not drawn) [Compound 168, dihydrochloride] = 50 to 500 nM

====

Biological target: PKC epsilon (Homo sapiens)
Construct: purchased Invitrogen P2282
Assay: Biochemical assay for PKC epsilon (fluorescence polarization, Protein Kinase C Assay Kit, Red)
Conditions: Table 2, compounds of Formula XIII; read-out: IC50 μM PKCε
Experimental: The compounds were tested for inhibition of PKC epsilon. The inhibition assays were performed with a fluorescence polarization (FP) assay using the commercially available Protein Kinase C Assay Kit, Red, from Invitrogen (Product ID. No. P2941), essentially in accordance with the protocol supplied by the manufacturer. […] The results were fitted to a curve using the XL-Fit algorithm and […] were calculated for each fitted curve, again using the XL-Fit algorithm.
Measured IC50 values are reported for all entries that follow.

>>> measvalue("NC(CNC(=O)C1(c2ccsc2)CC1)c1ccc(C(=O)Nc2ccncc2)cc1 (centres unmarked) [Compound 347]")
"0.05 to 0.5 µM"
>>> measvalue("NC(CNC(=O)c1cccc(Cl)c1)c1ccc(C(=O)Nc2ccncc2)cc1 (centres unmarked) [Compound 89]")
"0.5 to 5 µM"
>>> measvalue("Cc1ccc(CC(=O)NCC(N)c2ccc(C(=O)Nc3ccncc3)cc2)cc1 (centres unmarked) [Compound 145]")
"0.5 to 5 µM"
>>> measvalue("CC(C)(C(=O)NCC(N)c1ccc(C(=O)Nc2ccncc2)cc1)c1ccc(Cl)c(Cl)c1 (centres unmarked) [Compound 380]")
"< 0.05 µM"
>>> measvalue("NC(CNC(=O)c1cccc(Oc2ccccc2)c1)c1ccc(C(=O)Nc2ccncc2)cc1 (centres unmarked) [Compound 77]")
"5 to 50 µM"
>>> measvalue("NC(CNC(=O)c1ccncc1)c1ccc(C(=O)Nc2ccncc2)cc1 (centres unmarked) [Compound 104]")
"5 to 50 µM"

Please fill in: IC50 reported for NC(CNC(=O)c1cccc(F)c1)c1ccc(C(=O)Nc2ccncc2)cc1 (centres unmarked) [Compound 92] = 0.5 to 5 µM

Please fill in: IC50 reported for NC(CNC(=O)Cc1ccc(F)cc1)c1ccc(C(=O)Nc2ccncc2)cc1 (centres unmarked) [Compound 148] = 0.05 to 0.5 µM

====

Target: PKC epsilon (Homo sapiens, UniProt Q02156)
Construct: purchased Invitrogen P2282
Sequence (Q02156 1-737): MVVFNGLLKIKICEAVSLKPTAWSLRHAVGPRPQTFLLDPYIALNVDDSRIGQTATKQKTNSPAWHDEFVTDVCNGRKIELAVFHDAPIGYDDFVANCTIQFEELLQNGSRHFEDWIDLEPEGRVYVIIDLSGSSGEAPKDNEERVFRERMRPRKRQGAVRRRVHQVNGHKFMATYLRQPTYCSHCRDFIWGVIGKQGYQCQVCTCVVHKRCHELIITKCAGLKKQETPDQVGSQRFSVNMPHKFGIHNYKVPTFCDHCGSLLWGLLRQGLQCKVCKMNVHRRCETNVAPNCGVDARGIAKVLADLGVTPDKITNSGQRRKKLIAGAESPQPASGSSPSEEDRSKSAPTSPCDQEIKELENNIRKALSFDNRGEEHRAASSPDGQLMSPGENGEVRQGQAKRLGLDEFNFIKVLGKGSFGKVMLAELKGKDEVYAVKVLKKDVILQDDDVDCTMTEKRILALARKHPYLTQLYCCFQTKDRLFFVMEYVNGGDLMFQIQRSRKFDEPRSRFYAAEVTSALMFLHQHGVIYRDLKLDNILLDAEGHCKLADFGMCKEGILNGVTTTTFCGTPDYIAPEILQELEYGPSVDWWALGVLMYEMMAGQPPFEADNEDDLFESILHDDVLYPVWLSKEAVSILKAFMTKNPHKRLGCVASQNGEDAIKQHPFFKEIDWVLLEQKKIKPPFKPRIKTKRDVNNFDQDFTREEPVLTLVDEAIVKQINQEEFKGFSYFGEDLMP
Assay: Biochemical assay for PKC epsilon (fluorescence polarization, Protein Kinase C Assay Kit, Red)
Conditions: Table 2, compounds of Formula XIII; read-out: IC50 μM PKCε
assayMetric: IC50

Please fill in: IC50 reported for CC(C)=NOC(C)C(=O)NCC(N)c1ccc(C(=O)Nc2ccncc2)cc1 (centres unmarked) [Compound 59] = 0.5 to 5 µM

Please fill in: IC50 reported for NC(CNC(=O)C1Cc2ccccc21)c1ccc(C(=O)Nc2ccncc2)cc1 (centres unmarked) [Compound 161] = 0.5 to 5 µM

Please fill in: IC50 reported for NC(CNC(=O)c1ccccc1Nc1ccccc1)c1ccc(C(=O)Nc2ccncc2)cc1 (centres unmarked) [Compound 82] = 0.5 to 5 µM

Recorded values, source patent US20100168102A9.
